Tested on: NCI/ADR-RES ovarian
Test: NCI-60 one-dose screen, 48 h
Details: 10 µM unless noted
About 83,000 compounds went through this panel and 20% of them were active in at least one assay; those are over-represented in the sample as a whole. Calls of active or inactive are those of the source. Rule for the calls: active = growth percent below 10; inactive = the rest.
Outcome codes: 1.0 (active), 0.0 (inactive)

[
  {
    "compound": "C1=C\\COCc2cc(ccc2OCCN2CCCC2)Nc2nccc(n2)-c2cccc(c2)COC/1",
    "category": 1.0
  },
  {
    "compound": "O=C(Nc1ccc(C(=O)Nc2ccc(C3=NCCCN3)cc2)cc1)Nc1ccc(C2=NCCCN2)cc1",
    "category": 0.0
  },
  {
    "compound": "CCOC(=O)C1=C(C)N=C2Sc3cccc(OC)c3N2[C@H]1c1ccccn1",
    "category": 0.0
  },
  {
    "compound": "Cc1ccc(-c2nc3ccc(Cl)cn3c2NC2CCCCC2)o1",
    "category": 0.0
  },
  {
    "compound": "COc1cc2cc(NCc3ccc(Cl)cc3)nc(C)c2cc1OC",
    "category": 0.0
  },
  {
    "compound": "CCCCOc1nc2cc(Cl)ccc2cc1/C=C/c1cc(/C=C/c2cc3ccc(Cl)cc3nc2OCCCC)n(-c2ccccc2)n1",
    "category": 0.0
  },
  {
    "compound": "COc1cc(C2CC(c3ccc(Cl)cc3)=NN2c2ccc(Cl)cc2)cc(OC)c1OC (stereo not drawn)",
    "category": 0.0
  },
  {
    "compound": "COC(=O)CNC(=O)[C@@H](OC)[C@@H]1Cc2cc3cc(OC4CC(OC5CC(O)C(O)C(C)O5)C(O)C(C)O4)c(C)c(O)c3c(O)c2C(=O)[C@H]1OC1CC(OC2CC(OC3CC(C)(O)C(O)C(C)O3)C(O)C(C)O2)C(O)C(C)O1 (stereo partly drawn)",
    "category": 0.0
  }
]
